quantity-kind: melting point

• NS(=O)(=O)c1cccc(-c2noc(-c3cnn4c(C(F)(F)F)cc(-c5cccc(C(F)(F)F)c5)nc34)n2)c1 = 251 °C
• O=C(Cn1c(=O)c(=O)[nH]c2cc(C(F)(F)F)c(-n3cccc3)cc21)NCc1ccccc1 = 241 to 242 °C
• COc1ccc(CCc2cccc(C(=O)Nc3ccc(Cl)cc3)c2O)cc1 = 141 °C
• O=C(O)c1ccc(OC(F)(F)F)c(Cl)c1 = 110 to 112 °C
• Cc1c2c(nc3ccccc13)CCN(C(=O)c1ccc(Cl)cc1)CC2 = 163 °C
• CN(C)C1CCc2c(c3ccccc3n2C)C1 (stereo unspecified) = > 300 °C
• COc1ccc(CCCC(C)=O)cc1S(N)(=O)=O = 115 to 116 °C
• Ic1c2n(c3ccc(OC4CC4)cc13)CCC2 = 104 to 105 °C
• N#CN1CCC(c2nn(-c3ccccc3)c3ccc(F)cc23)CC1 = 137 to 139 °C
• Cc1cccc(Nn2c(-c3ccccc3)c(C)[nH]c2=S)c1 = 206 °C
• C#CCOC(=O)N(I)C(C)C(=O)OC (stereo unspecified) = 100 to 102 °C
• COc1ccccc1CNC(=O)c1oc(=O)c2ncccc2c1-c1ccc(C)cc1 = 189 to 190 °C
• C[C@@H](c1ccccc1)N1C[C@@H](C(N)=O)CC1=O = 149 to 150 °C
• COC(=O)Cc1nc(N)cc(OC)n1 = 91 to 94 °C
• CS(=O)(=O)Nn1c(=O)[nH]c2cc(C(F)(F)F)c(-n3cnc(C(F)(F)F)c3)cc2c1=O = 144 to 147 °C
• Nc1n[nH]cc1-c1cccc(N2CCC(N3CCCC3)CC2)c1 = 214 to 216 °C
• CC(C)CCCOc1c(-c2ccc(S(C)(=O)=O)cc2)cnn(-c2ccc(F)c(F)c2)c1=O = 98 to 99 °C
• CCCC(O)c1cc(-c2ccc(C(F)(F)F)n(C)c2=O)c(F)cc1Cl (stereo unspecified) = 120 to 122 °C
• COc1cc(Br)c(-n2c(=O)[nH]c3c(-c4ccccc4C(F)(F)F)nc(C)nc32)c(OC)c1 = 255 to 256 °C
• CNc1c(F)cc2c(=O)c(C(=O)O)cn(-c3nc(N)c(F)cc3F)c2c1Br = 205 to 208 °C
• O=C(CCc1ccccc1)N[C@H]1COC1=O = 104 to 106 °C

* * *

Below, each entry is listed with its recorded melting point.
quantity-kind: melting point

- Cc1ncc2c(c1OCC(=O)O)COC2(C)c1ccc(Cl)cc1 (stereo unspecified): 184 °C
- COP(=O)(OC)C(CCc1cc(C)nc2c(C#N)c(C)nn12)P(=O)(OC)OC: 100 to 101 °C
- COc1ccc(C(O)(C2CC2)C2CC2)c2c1nc1n2CCCN1c1ccc(Cl)cc1Cl: 219 to 220 °C
- COc1ccc(C(=O)OC2C(OC(C)=O)C=C(C)C(=O)CC2(C)C)cc1 (stereo unspecified): 78 to 80 °C
- CNCCCc1cc(C(=O)Nc2ccc(-c3ccc(C(C)=O)cc3)cc2)ccc1OC: 195 to 196 °C
- CCCCCCCCCCC[C@@H](O)CC(=O)OCC(=O)c1ccc(Br)cc1: 109 to 110 °C
- NC(=S)c1nccc(F)c1Cn1ccnc1: 154 to 156 °C
- O=C1Cc2cc(F)ccc2N1CCCl: 127 °C
- Cc1c(C2=CCC(c3ccccc3)(N(C)C)CC2)n(CC2CO2)c2ccccc12 (stereo unspecified): 147 to 150 °C
- NC(N)=Nc1nc(-c2cccc(CNC(=O)CSCc3ccco3)n2)cs1: 182 °C
- CCOC(=O)N1CCn2c(nc(-c3ccncn3)cc2=O)C(CC)C1 (racemic): 160 to 162 °C
- N#Cc1cc(CC(=O)O)cc2c1NC(C(F)(F)F)CC2 (stereo unspecified): 148 to 149 °C
- Cc1cc(C)cc(C(=O)c2c(C(C)C)c(=O)[nH]c(=O)n2COCc2ccccc2)c1: 68 to 70 °C
- COc1ccc(CCNc2nc(N)c3nc(-c4ccco4)oc3n2)cc1OC: 155 to 158 °C
- Cc1cc(O)n2nc(S(=O)(=O)Nc3c(Cl)cccc3Cl)nc2n1: 302 °C
- O=C(NOCCO)c1cc(F)c(F)c(F)c1Nc1ccc(I)cc1Cl: 183 to 184 °C
- CN1Cc2ccccc2N(C)S1(=O)=O: 59 to 60 °C
- COc1cc(C(=O)O)cc(OC)c1CC(C)C: 160 to 162 °C
- CC(=O)N1CCN(c2ccc([N+](=O)[O-])c(C)c2)CC1: 133 to 137 °C
- OC(CCN1CCC(c2ccccc2)CC1)c1ccc(-c2ccccc2)cc1 (stereo unspecified): 99 to 101 °C
- N#CC(C#N)(CC=C(Cl)Cl)Cc1ccc(OC(F)(F)F)cc1: 96.5 °C

* * *

quantity-kind: melting point

- CC(C)NC(=O)c1nc(-c2ccc(F)cc2)c(-c2ccc(=O)n(C(C)C)n2)s1: 122 to 124 °C
- O=C(NCC1CCCCC1)c1c(Cl)ccc2nc(N3CC(NCCO)C3)ccc12: 150 to 151 °C
- CC(=O)c1cc([N+](=O)[O-])c(Cl)c([N+](=O)[O-])c1: 86 to 86.5 °C
- O=S(=O)(NCC1CCN(C[C@H]2COc3ccc(C(F)(F)F)cc3O2)CC1)c1cccc(Cl)c1Cl: 139 to 140 °C
- CC(C)CCOc1ccc(C(=O)c2c(N)sc3c2CCN(Cc2ccccc2)C3)cc1: 106 to 107 °C
- O=C1CCCCCC1C(c1ccc(Cl)cc1)[N+](=O)[O-] (racemic): 77 to 78 °C
- CN(C)Cc1cccc(OCCCNC(=O)COC(=O)c2ccc(Cl)c(Cl)c2)c1: 48 to 50 °C
- CCOC(=O)CCCn1ccnc1CSc1ccc(N)cc1: 74 to 75 °C
- CCCCOc1cc(/C=C(\OCC)C(=O)O)ccc1OCCc1ccc(OS(=O)(=O)CCCC)c(OC)c1: 94 °C
- COC(=O)[C@H](CC(=O)O)NC(=O)c1cccc(NC(=O)c2ccc(C(=N)N)cc2)c1: 248 to 249 °C
- O=C(O)c1cccc(Cn2cc(C3c4ccccc4C=Cc4ccccc43)c(=S)[nH]c2=S)c1: 167 to 170 °C
- O=CNc1cccc(C(=NOC(=O)C(Cl)Cl)C(=O)O)n1: 88 to 90 °C
- CCCCCCCCCCCCc1ccc(NC(C)=O)cc1: 100 to 102 °C
- S=c1cc(N2CCOCC2)ss1: 60 °C
- COc1ccc(CN2C(=O)[C@@H](Cl)[C@H]2[C@@H]2COC(C)(C)O2)c(OC)c1: 140 to 142 °C
- N#Cc1cc2c(cc1F)OCC21C(=O)N(Cc2ccccc2C(F)(F)F)c2ccccc21 (stereo not given): 193 to 195 °C
- CCOCc1nc2c(N)nc3cc(OCCCCCCNC(C)=O)ccc3c2n1CC(C)(C)NC(=O)NC(C)C: 90 to 110 °C
- CCCc1nc2c(N)nc3ccccc3c2n1O: 232 to 235 °C
- COC(=O)C=Cc1ccc(-n2ccn(-c3ccc(C#N)cc3)c2=O)cc1: 210 to 212 °C
- N#CC1CN1Cc1ccccc1 (stereo not given): 81 to 83 °C

* * *

Listed next: entries and their corresponding melting point.
quantity-kind: melting point

• CCN(Cc1sc(-c2ccc(C(F)(F)F)cc2)nc1C)c1cc(C)c(OCC(=O)O)c(C)c1 = 161 to 162 °C
• c1nc(Nc2ccc3[nH]ccc3c2)c2sc(-c3ccsc3)cc2n1 = 178 to 189 °C
• CC1(O)CCC(CN2CCC(=C3c4ccc(F)cc4Sc4ccc(C(F)(F)F)cc43)CC2)CC1 (stereo unspecified) = 80 to 90 °C
• CCCCn1c(=O)c(-c2c(Cl)cccc2Cl)cc2cnc(N)nc21 = 202 to 205 °C
• CC(C)(C1CC1)C(O)(Cn1cncn1)c1ccc(Cl)cc1 (stereo unspecified) = 88 to 90 °C
• O=C(O)CCC(=O)c1ccc(N2CCOCC2)cc1 = 167 to 168 °C
• CC(C)(C)c1ccc2c(c1)C(=O)CCC2 = 101 to 102 °C
• CC1(C)C(=O)Oc2ccc3cc(C#N)c(C(n4cncn4)n4cncn4)cc3c21 = 240 to 242 °C
• CCCOc1nc(Nc2ccc(F)c(Cl)c2)nc(NC2CCN(S(C)(=O)=O)CC2)n1 = 199 to 201 °C
• Cc1cn(-c2ccc(N3C[C@H](CO)OC3=O)cc2F)cn1 = 151 to 153 °C
• CCCCCCCCCCCCCCCCCC(=O)OC1CC(C)(C)N(OC2CCCCC2)C(C)(C)C1 = 44 to 47 °C
• Nc1ccc(NC2CCCCCCC2)c([N+](=O)[O-])c1 = 161 °C
• O=C1CCCN1CC1CCN(c2ccnc(C(F)(F)F)n2)CC1 = 118 to 120 °C
• OCC(Nc1nc(-c2ccc(Br)cc2)cs1)C(F)(F)F (stereo unspecified) = 133 to 134 °C
• CCc1cn(C2CC(O)C(CCCCc3ccccc3)O2)c(=O)[nH]c1=O (stereo unspecified) = 160 to 162 °C
• Cc1cccc2c1nc(-c1ccccc1[N+](=O)[O-])n2CC(O)C(C)(C)C (stereo unspecified) = 204 °C
• Cc1ccc(-c2ccc3c(c2)C=C(C(=O)Nc2ccc(C(O)c4ccccn4)cc2)C(C)O3)cc1 (stereo unspecified) = 202 to 205 °C
• Cc1cc(C(=O)NCCO)ncc1C(c1cc(F)ccc1F)S(=O)(=O)c1cc(F)cc(F)c1 (stereo unspecified) = 82 to 84 °C
• Cc1nc(N2CCC(Cc3ccc(OC(F)(F)F)cc3)C2=O)sc1C(=O)NCc1cccnc1 (stereo unspecified) = 158 to 160 °C
• COC(=O)c1ccc(O)cc1[N+](=O)[O-] = 161 to 166 °C
• O=[N+]([O-])c1cc(Cl)c(CCl)c(Cl)c1 = 37 to 39 °C
